// data source = ChEMBL document CHEMBL1137050

Could you please report measured pKi for the items listed next?
target desc: Mu-type opioid receptor (Homo sapiens)
Sequence (P35372 whole entry): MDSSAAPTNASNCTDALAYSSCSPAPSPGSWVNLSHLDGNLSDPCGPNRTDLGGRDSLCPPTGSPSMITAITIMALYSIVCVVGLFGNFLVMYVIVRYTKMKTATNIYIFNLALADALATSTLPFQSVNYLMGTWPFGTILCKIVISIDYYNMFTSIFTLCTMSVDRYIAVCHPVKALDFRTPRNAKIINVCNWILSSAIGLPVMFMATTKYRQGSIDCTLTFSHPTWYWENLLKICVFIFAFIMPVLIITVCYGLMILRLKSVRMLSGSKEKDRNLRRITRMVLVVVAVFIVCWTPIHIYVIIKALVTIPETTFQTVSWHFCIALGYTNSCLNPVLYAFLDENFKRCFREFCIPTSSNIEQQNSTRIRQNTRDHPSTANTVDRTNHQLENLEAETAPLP
test protocol: Binding affinity for recombinant human mu-opioid receptor was determined by using [3H]- diprenophine radioligand
One number for each entry, as −log10 of the molar value.

Worked examples, 4 compounds total:
[[record]]
sample_smiles = "COC(=O)C(CCN1CCC(O)(c2cccc(C(F)(F)F)c2)CC1)(c1ccccc1)c1ccccc1"
measurement = 9.96

[[record]]
sample_smiles = "O=C(O)C(CCN1CCC(O)(c2cccc(C(F)(F)F)c2)CC1)(c1ccccc1)c1ccccc1"
measurement = 6.48

[[record]]
sample_smiles = "COC(=O)C(CCN1CCC(O)(c2ccc(Cl)cc2)CC1)(c1ccccc1)c1ccccc1"
measurement = 9.64

[[record]]
sample_smiles = "O=C(O)C(CCN1CCC(O)(c2ccc(Cl)c(C(F)(F)F)c2)CC1)(c1ccccc1)c1ccccc1"
measurement = 6.31


# batch size: 3; output pKi per entry
1. OC1(c2ccc(Cl)cc2)CCN(CCC(c2ccccc2)c2ccccc2)CC1
2. OC1(c2ccc(Cl)c(C(F)(F)F)c2)CCN(Cc2ccc3ccccc3c2)CC1
3. COC(=O)C(CCN1CCC(O)(c2ccc(Cl)c(C(F)(F)F)c2)CC1)(c1ccccc1)c1ccccc1

1: 7.43; 2: 8.60; 3: 9.52
